Data origin: patent US5436254A

Parameter: IC50. Scope: all listed entries.
- assay system: V1 receptor (Rattus norvegicus, UniProt P30560)
- Sequence (P30560 whole entry): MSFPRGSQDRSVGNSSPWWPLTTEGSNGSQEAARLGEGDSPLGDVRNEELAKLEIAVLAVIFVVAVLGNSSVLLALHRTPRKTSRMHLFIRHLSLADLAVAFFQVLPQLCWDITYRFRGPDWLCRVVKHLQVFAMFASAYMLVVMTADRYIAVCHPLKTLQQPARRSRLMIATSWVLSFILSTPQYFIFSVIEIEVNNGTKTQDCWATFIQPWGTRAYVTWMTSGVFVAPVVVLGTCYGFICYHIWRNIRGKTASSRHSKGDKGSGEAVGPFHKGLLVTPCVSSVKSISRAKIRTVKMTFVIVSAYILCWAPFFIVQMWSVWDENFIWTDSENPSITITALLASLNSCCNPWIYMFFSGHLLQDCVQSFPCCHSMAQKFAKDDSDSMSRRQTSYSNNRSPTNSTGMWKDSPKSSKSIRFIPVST
- assay details: biochemical
- Format: binding
Enter your answer as a number in nM; do not include the unit.

Please review the following examples before continuing.
compound: CS(=O)(=O)NCC(=O)NCCCCCOc1ccc(C(=O)N2CCC(N3C(=O)CCc4ccccc43)CC2)cc1
value units: nM
experimental result: 160
//
compound: CCCC(NC(C)=O)C(=O)NCCCOc1ccc(C(=O)N2CCC(N3C(=O)CCc4ccccc43)CC2)cc1 (stereo not drawn)
value units: nM
experimental result: 120
//
compound: COc1ccc(C(=O)N2CCC(N3C(=O)CCc4ccccc43)CC2)c(OC)c1
value units: nM
experimental result: 100

IC50 reported for this compound COC(=O)[C@H](C)NC(=O)CCCOc1ccc(C(=O)N2CCC(N3C(=O)CCc4ccccc43)CC2)cc1 : 300

IC50 reported for this compound CN(CCC#N)CCCCCOc1ccc(C(=O)N2CCC(N3C(=O)CCc4ccccc43)CC2)cc1 : 170

IC50 reported for this compound O=C(c1ccc(OCCCC(O)CN2CCOCC2)cc1)N1CCC(N2C(=O)CCc3ccccc32)CC1 (stereo not drawn) : 130

IC50 reported for this compound O=C(c1ccc(OCCCC(O)CN2CCCC2)cc1)N1CCC(N2C(=O)CCc3ccccc32)CC1 (stereo not drawn) : 63

IC50 reported for this compound O=C(OCCCCOc1ccc(C(=O)N2CCC(N3C(=O)CCc4ccccc43)CC2)cc1)N1CCN(Cc2ccccc2)CC1 : 450

IC50 reported for this compound CN(C)CC(O)CCCCOc1ccc(C(=O)N2CCC(N3C(=O)CCc4ccccc43)CC2)cc1 (stereo not drawn) : 66

IC50 reported for this compound CC(C)NCC(O)CCCCOc1ccc(C(=O)N2CCC(N3C(=O)CCc4ccccc43)CC2)cc1 (stereo not drawn) : 53

IC50 reported for this compound CCOc1ccc(C(=O)N2CCC(N3C(=O)CCc4c(OC(C)=O)cccc43)CC2)c(OC)c1 : 73

----------
Parameter: pIC50. Scope: all listed entries.
- assay system: UniProtKB P30560
- assay details: biochemical
- Type: binding
pIC50 here is simply -log10 of the concentration when that concentration is written in mol/L.

Please review the following examples before continuing.
compound: CNC(=O)CNc1cc(OC)ccc1C(=O)N1CCC(N2C(=O)CCc3ccccc32)CC1 [Example 105]
pIC50: 5.92
--
compound: O=C(CCCNC(=O)OCc1ccccc1)NCCCCCOc1ccc(C(=O)N2CCC(N3C(=O)CCc4ccccc43)CC2)cc1 [Example 250]
pIC50: 6.49
--
compound: CCSc1nccn1-c1ccc(C(=O)N2CCC(N3C(=O)CCc4ccccc43)CC2)cc1 [Example 89]
pIC50: 5.80
--
compound: CSCC[C@H](NC(=O)CCCCCOc1ccc(C(=O)N2CCC(N3C(=O)CCc4ccccc43)CC2)cc1)C(N)=O [Example 153]
pIC50: 7.08
--
compound: CCN(CC(O)CCCCOc1ccc(C(=O)N2CCC(N3C(=O)CCc4ccccc43)CC2)cc1)CC1CCCCO1 (stereo not shown) [Example 218]
pIC50: 7.36

pIC50 reported for this compound O=C(c1ccc(OCCCCN2CCN(Cc3ccccc3)CC2)cc1)N1CCC(N2C(=O)CCc3ccccc32)CC1 [Example 156] : 6.74

pIC50 reported for this compound CC(=O)c1ccc(C(=O)N2CCC(N3C(=O)CCc4ccccc43)CC2)cc1 [Example 107] : 6.12

----------
- assay system: V1 receptor (Rattus norvegicus)
- assay details: biochemical
- Format: binding
measured property: pIC50
pIC50 here is simply -log10 of the concentration when that concentration is written in mol/L.

compound: NC(=O)CCCOc1ccc(C(=O)N2CCC(N3C(=O)CCc4ccccc43)CC2)cc1 [Example 7]
pIC50: 6.51
--
compound: C=CCN1CCN(CCCCOc2ccc(C(=O)N3CCC(N4C(=O)CCc5ccccc54)CC3)cc2)CC1 [Example 227]
pIC50: 6.89
--
compound: CC(C)CCNCCCOc1ccc(C(=O)N2CCC(N3C(=O)CCc4ccccc43)CC2)cc1 [Example 167]
pIC50: 6.55

Next, consider the following compound.
Recorded pIC50 for O=C(c1ccc(OCCCCC(O)CNCc2ccccc2)cc1)N1CCC(N2C(=O)CCc3ccccc32)CC1 (stereo not shown) [Example 170] on V1 receptor (Rattus norvegicus) was 7.41

----------
Parameter: pIC50. Scope: all listed entries.
- assay system: UniProt P30560
- assay details: biochemical
- Format: binding
pIC50 here is simply -log10 of the concentration when that concentration is written in mol/L.

Recorded pIC50 for CN(CCCOc1ccc(C(=O)N2CCC(N3C(=O)CCc4ccccc43)CC2)cc1)C(=O)c1ccccc1 on UniProt P30560 was 5.92

Recorded pIC50 for CC(=O)N1CCN(CCCCOc2ccc(C(=O)N3CCC(N4C(=O)CCc5ccccc54)CC3)cc2)CC1 on UniProt P30560 was 6.96

Recorded pIC50 for CS(=O)(=O)Oc1ccc(C(=O)N2CCC(N3C(=O)CCc4ccccc43)CC2)cc1 on UniProt P30560 was 6.05

Recorded pIC50 for O=C(c1ccc(OCCCCCN2CCC[C@H]2CO)cc1)N1CCC(N2C(=O)CCc3ccccc32)CC1 on UniProt P30560 was 7.48

Recorded pIC50 for NC(=O)CCCCOc1ccc(C(=O)N2CCC(N3C(=O)CCc4ccccc43)CC2)cc1 on UniProt P30560 was 6.48

Recorded pIC50 for CC(=O)OCCCCc1ccc(C(=O)N2CCC(N3C(=O)CCc4ccccc43)CC2)cc1 on UniProt P30560 was 6.49

Recorded pIC50 for COc1cc(OCCCCC(N)=O)ccc1C(=O)N1CCC(N2C(=O)CCc3ccccc32)CC1 on UniProt P30560 was 6.77

Recorded pIC50 for CN(C)CC(O)CCCCCCOc1ccc(C(=O)N2CCC(N3C(=O)CCc4ccccc43)CC2)cc1 (centres unmarked) on UniProt P30560 was 7.40

----------
- assay system: V1 receptor (Rattus norvegicus, UniProt P30560)
- assay details: biochemical
- Assay type: binding
Parameter: IC50. Scope: all listed entries.
Enter your answer as a number in nM; do not include the unit.

Please review the following examples before continuing.
compound: COc1cc(OCCCCC(=O)N2CCS(=O)(=O)CC2)ccc1C(=O)N1CCC(N2C(=O)CCc3ccccc32)CC1
assay system: V1 receptor (Rattus norvegicus, UniProt P30560)
IC50 [nM]: 73

compound: COc1cc(OCCCCC(=O)N2CCSCC2)ccc1C(=O)N1CCC(N2C(=O)CCc3ccccc32)CC1
assay system: V1 receptor (Rattus norvegicus, UniProt P30560)
IC50 [nM]: 220

compound: CN(CCO)CC(=O)NCCCCCOc1ccc(C(=O)N2CCC(N3C(=O)CCc4ccccc43)CC2)cc1
assay system: V1 receptor (Rattus norvegicus, UniProt P30560)
IC50 [nM]: 200

IC50 reported for this compound CCN(CC)CCCCCOc1ccc(C(=O)N2CCC(N3C(=O)CCc4ccccc43)CC2)c(OCCCCCN(CC)CC)c1 : 77

IC50 reported for this compound CN(C)CCCOc1ccc(C(=O)N2CCC(N3C(=O)CCc4ccccc43)CC2)cc1 : 430

IC50 reported for this compound O=C(OCCCCOc1ccc(C(=O)N2CCC(N3C(=O)CCc4ccccc43)CC2)cc1)N1CCNCC1 : 75

IC50 reported for this compound O=C(c1ccccc1)c1ccc(C(=O)N2CCC(N3C(=O)CCc4ccccc43)CC2)cc1 : 480

IC50 reported for this compound NC(=O)OCCCOc1ccc(C(=O)N2CCC(N3C(=O)CCc4ccccc43)CC2)cc1 : 150

IC50 reported for this compound COc1cc(OCCCCC(=O)N2CC[S+]([O-])CC2)ccc1C(=O)N1CCC(N2C(=O)CCc3ccccc32)CC1 : 77

IC50 reported for this compound CCOc1ccc(C(=O)N2CCC(N3C(=O)CCc4c(F)cccc43)CC2)c(OC)c1 : 84

----------
- assay system: UniProt P30560
- assay details: biochemical
- Assay type: binding
measured property: pIC50
pIC50 here is simply -log10 of the concentration when that concentration is written in mol/L.

Please review the following examples before continuing.
structure as smiles: C=CCc1ccc(C(=O)N2CCC(N3C(=O)CCc4ccccc43)CC2)cc1
experimental result: 6.14
--
structure as smiles: COC(=O)[C@H](CCCCNC(=O)OCc1ccccc1)NC(=O)CCCCCOc1ccc(C(=O)N2CCC(N3C(=O)CCc4ccccc43)CC2)cc1
experimental result: 6.27
--
structure as smiles: O=C(CCCCCOc1ccc(C(=O)N2CCC(N3C(=O)CCc4ccccc43)CC2)cc1)N1CCN(Cc2ccccc2)CC1
experimental result: 6.80

Recorded pIC50 for NC(=O)CNC(=O)CCCOc1ccc(C(=O)N2CCC(N3C(=O)CCc4ccccc43)CC2)cc1 on UniProt P30560 was 6.46

Recorded pIC50 for COc1ccc(C(=O)N2CCC(N3C(=O)CCc4ccccc43)CC2)c(OCCCC(N)=O)c1 on UniProt P30560 was 6.33
